Study System: T1, recombinant human MCP-4 (human, UniProt Q99616 24-98, limits assumed)
T1 construct: also called rhMCP-4
T1 sequence (Q99616 24-98 limits assumed): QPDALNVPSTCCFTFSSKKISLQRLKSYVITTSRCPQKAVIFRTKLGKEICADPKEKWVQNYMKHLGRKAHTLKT
Protocol Description: ELISA, coated antigen
Measured Quantity: ELISA OD (OD450)

| Binder | Observed Result |
| --- | --- |
| anti-MCP-1 mAb 3.5.1 (antibody, V domains shown) VH: QVQLVQSGAEVKKPGASVKVSCKVSGYTLSELSMHWVRQAPGKGLEWMGGFDPEDDETIYAQKFQGRVTMTEDTSTDTAFMELSSLRSEDTAVYYCATHDFWSGYFHYWGQGTLVTVSS VL: DIVMTQSPDSLAVSLGERATINCKSSQSVLYSSDNKSYLVWYQQKPGQPPKVLIYWASIRESGVPDRFSGSGSGTDFTLTISSLQAEDVAVYYCQQYYTSPWTFGQGTKVEIKR | 0.044 |
| anti-MCP-1 mAb 3.4.1 (antibody, V domains shown) VH: QVQLVQSGAEVKKPGASVKVSCKVSGYTLTELSMHWVRQAPGKGLEWMGGFDPEDGETMYAQKFQGRVTMTEDTSTDTAYMELSSLRSEDTAVYYCATDDFWSGYFDYWGQGTLVTVSS VL: DIVMTQSPDSLAVSLDERATINCKSSQSVLYSPNQKNYLVWYQQKPGQPPKLLLYWASIRESGVPDRFSGSGSGTDFTLTISSLQAEDVAVYYCQQSYFTPWTFGQGTKVEIKR | 0.047 |
| anti-MCP-1 mAb 1.13.1 (antibody, V domains shown) VH: QVQLVQSGAEVKKPGASVKVSCKVSGHTLTELSMHWVRQAPGKGLEWMGGFDPEDDETIYAQKFQDRVTMTEDTSTDTAYMELSSLRSEDTAVYYCATNDFWSGYFDCWGQGTLVTVSS VL: DIVLTQSPDSLAVCLGERATINCKSSQSVLYSPNNKNFLVWYQQRPGQPPKLLIYWASTRESGVPDRFSGSGSGTDFTLTISSLQAEDVAVYYCQQYYSSPWTFGQGTKVEIKR | 0.045 |
| anti-MCP-1 mAb 5.1 (antibody, V domains shown) VH: EQSGGGVVQPGRSLRLSCAASGFTFSSYGMHWVRQAPGKGLEWVAVIWYDGNNKYYADSVKGRFTISRDTSKNTLYLQMNSLRAEDTAVYYCARDSSSYYYYGMDVWGQGTTVTVSS VL: NFMLTQPHSVSESPGKTVTISCTRSSGSIASNYVQWFQQRPGSSPTTVIYEDDQRPSGVPDRFCGSIDSSSNSASLTISGLRTEDEADYYCQSYDSSNHVVFGGGTKLTVLG | 0.043 |
| anti-MCP-1 mAb 3.2 (antibody, V domains shown, also called 3.2 (neat)) VH: QVQLVQSGAEVKKPGASVKVSCKVSGYTLSELSMHWVRQAPGKGLEWMGGFDPEDGEIIHAQKFQGRVTMTEDTSTDTAYMELSSLRSEDTAVYYCATGDFWSGYYLDWWGQGTLVTVSS VL: EIVMMQSPATLSVSPGERATLSCRASQSVNSNLAWYQQKPGQAPRLLINGASTRATGIPARFSGSGSGTEFTLTISSLQSEDFAIYYCQQYNDWPTFTFGGGTKVEINR | 0.041 |
